Target: Rap guanine nucleotide exchange factor 4 (Homo sapiens)
Experiment: Confirmatory qHTS for agonist of cAMP-regulated guanine nucleotide exchange factor 4 (EPAC2) (AID 1645884);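 also: nucleotide exchange releases bodipy-GDP from Rap1 and this lowers its fluorescence; nearly all actives have a fitted effect of over 65% in size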
Details: EPAC2 GEF activity, Rap1B-BODIPY-GDP fluorescence; series mostly up to 154 µM
Results filed as inconclusive are left out. Activity calls are given as the source filed them. Calls follow the shape of the dose curve; as a rule, active = well fitted activation curve with a large enough effect; inconclusive = small, poorly fitted or top-dose-only effect; inactive = no such curve, though single readings can be large or run the other way.
MEASURED_PROPERTY: activation

> print(dat)
                                    molecule  measured.property  assay.value
 1  O=C(/C=C/c1ccco1)N1CCCC(c2ccccc2)C1 (stereo unspecified)         activation     inactive
 2  O=C1C=C(c2ccccc2)C(c2ccccc2)C1 (stereo unspecified)         activation     inactive
 3              C[n+]1cccc2c(Br)ccc([O-])c21         activation     inactive
 4     Cc1cccc(Cn2c(COc3ccccc3)nc3ccccc32)c1         activation     inactive
 5         COc1cccc(-c2cncnc2NCc2ccccc2OC)c1         activation     inactive
 6  O=C(CN1C(=O)N/C(=C\c2ccccc2OCc2ccc(C(=O)O)cc2)C1=O)Nc1ccc(F)cc1         activation     inactive
 7  O=C(O)c1ccc(/C=N/NC(=O)c2cc(-c3ccc4c5c(cccc35)CC4)n[nH]2)cc1         activation     inactive
 8  CCc1nc2c(OCCC3CCCCC3)cccn2c1N(C)C(=O)c1ccc(C)cc1         activation     inactive
 9  CN(c1ccccc1)c1ccc(/C=C(/CCC(=O)O)c2nc3ccccc3s2)cc1[N+](=O)[O-]         activation     inactive
10  CCN1/C(=C\c2ccc3ccccc3[n+]2CC)Sc2cc(C)ccc21         activation     inactive
11  Cc1csc(NC(=O)CSc2sc3c(O)cc(=O)[nH]c3c2C#N)n1         activation     inactive
12  CCN(C(=O)Cn1c(=O)oc2cc(Cl)ccc21)c1cccc(C(F)(F)F)c1         activation     inactive
13  CCCN(CC(=O)Nc1ccccc1C)C(=O)C1CCN(c2ncnc3sc(C)c(C)c23)CC1         activation     inactive
14  O=C(CSc1nnc(-c2cnccn2)n1Cc1ccco1)c1ccc(Cl)cc1         activation     inactive
15  CC(C)=CCc1c(O)cc(O)c2c1OC(c1ccc(O)cc1)CC2=O (stereo unspecified)         activation     inactive
16  CCOC(=O)c1c(C)[nH]c(C(=O)OCC(=O)Nc2sccc2C(N)=O)c1C         activation     inactive

* * *

Target: Cytochrome P450 2C9 (Homo sapiens) (UniProt P11712)
Sequence (P11712 whole entry, looked up): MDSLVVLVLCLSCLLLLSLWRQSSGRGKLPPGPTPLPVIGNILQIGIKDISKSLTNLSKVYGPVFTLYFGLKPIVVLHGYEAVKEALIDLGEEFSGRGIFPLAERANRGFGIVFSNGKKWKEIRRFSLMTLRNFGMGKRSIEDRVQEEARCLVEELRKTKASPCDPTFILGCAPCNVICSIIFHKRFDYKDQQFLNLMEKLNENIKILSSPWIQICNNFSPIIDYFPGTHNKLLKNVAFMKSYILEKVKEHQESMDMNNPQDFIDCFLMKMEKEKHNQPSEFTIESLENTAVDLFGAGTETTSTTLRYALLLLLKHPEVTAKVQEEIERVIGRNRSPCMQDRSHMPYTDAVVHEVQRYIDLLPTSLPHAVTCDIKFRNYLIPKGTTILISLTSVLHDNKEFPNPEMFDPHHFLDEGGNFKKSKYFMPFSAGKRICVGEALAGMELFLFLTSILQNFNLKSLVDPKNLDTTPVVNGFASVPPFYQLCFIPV
Test: qHTS for inhibitors of CYP2C9 against the NCATS DSHEA and TCM libraries (AID 1919973)
Settings: recombinant CYP2C9 enzyme activity, luminescence; series mostly up to 34.1 µM
Results filed as inconclusive are left out. Calls of active or inactive are those of the source. Calls come from the whole dose curve; as a rule, active = well fitted inhibition curve with a large enough effect; inconclusive = small, poorly fitted or top-dose-only effect; inactive = no such curve, though single readings can be large or run the other way.
Labels: active, inactive

COMPOUND	CLASSIFICATION
CC(C)=CCC[C@](C)(O[C@@H]1O[C@H](CO)[C@@H](O)[C@H](O)[C@H]1O)[C@H]1CC[C@]2(C)[C@@H]1[C@H](O)C[C@@H]1[C@@]3(C)CC[C@H](O[C@@H]4O[C@H](CO)[C@@H](O)[C@H](O)[C@H]4O[C@@H]4O[C@H](CO)[C@@H](O)[C@H](O)[C@H]4O)C(C)(C)[C@@H]3CC[C@]12C	inactive
CC(C)=CCC[C@](C)(O[C@@H]1O[C@H](CO)[C@@H](O)[C@H](O)[C@H]1O)[C@H]1CC[C@]2(C)[C@@H]1[C@H](O)C[C@@H]1[C@@]3(C)CC[C@H](O)C(C)(C)[C@@H]3[C@@H](O[C@@H]3O[C@H](CO)[C@@H](O)[C@H](O)[C@H]3O)C[C@]12C	inactive
O=C(O[C@@H]1Cc2c(O)cc(O)cc2O[C@@H]1c1ccc(O)c(O)c1)c1cc(O)c(O)c(O)c1	active
CCCCCCCC/C=C\CCCCCCCCCCCCCC(=O)O	inactive
C=C1CC[C@H](O)C/C1=C\C=C1/CCC[C@]2(C)[C@@H]([C@H](C)CC[C@H](C)C(C)C)CC[C@@H]12	active
CC(C)[C@H](C)CC[C@@H](C)[C@H]1CC[C@H]2[C@@H]3CC=C4C[C@@H](O)CC[C@]4(C)[C@H]3CC[C@]12C	inactive
CCCCCCC/C=C/C(=O)CCc1ccc(O)c(OC)c1	active
O=c1cc(-c2ccc(O)cc2)oc2cc(O[C@@H]3O[C@H](CO)[C@@H](O)[C@H](O)[C@H]3O[C@@H]3OC[C@](O)(CO)[C@H]3O)cc(O)c12	active
O=C(O)CC(O)(C(=O)O)C(O)C(=O)O (stereo unspecified)	inactive
CC[C@H](CC[C@@H](C)[C@H]1CCC2C3CCC4C[C@@H](O)CC[C@]4(C)C3CC[C@@]21C)C(C)C (stereo partly specified)	inactive
CCCCCCCCCCCCCCCCCCCCCC(=O)O	inactive
O=C(/C=C/c1ccc(O)c2c1[C@H](C(=O)O)[C@@H](c1ccc(O)c(O)c1)O2)O[C@H](Cc1ccc(O)c(O)c1)C(=O)O	active
O=C(O)c1ccccc1	inactive
CC1(C)C2CCC1(C)C(O)C2 (stereo unspecified)	inactive
CC(C)(O)[C@@H]1CC[C@](C)([C@@H]2[C@H](O)C[C@]3(C)C4C[C@@H](O[C@H]5O[C@@H](CO)[C@H](O)[C@@H](O)[C@@H]5O)C5C(C)(C)[C@H](O[C@H]6OC[C@H](O)[C@@H](O)[C@@H]6O)CC[C@]56CC46CC[C@@]23C)O1 (stereo partly specified)	inactive
O=C(/C=C/c1ccc(O)c(O)c1)O[C@@H]1CC(C(=O)O)=C[C@@H](O)[C@H]1O	inactive

* * *

Molecular target: Rap guanine nucleotide exchange factor 4 (Homo sapiens) (UniProt Q8WZA2)
Sequence (Q8WZA2 whole entry, looked up): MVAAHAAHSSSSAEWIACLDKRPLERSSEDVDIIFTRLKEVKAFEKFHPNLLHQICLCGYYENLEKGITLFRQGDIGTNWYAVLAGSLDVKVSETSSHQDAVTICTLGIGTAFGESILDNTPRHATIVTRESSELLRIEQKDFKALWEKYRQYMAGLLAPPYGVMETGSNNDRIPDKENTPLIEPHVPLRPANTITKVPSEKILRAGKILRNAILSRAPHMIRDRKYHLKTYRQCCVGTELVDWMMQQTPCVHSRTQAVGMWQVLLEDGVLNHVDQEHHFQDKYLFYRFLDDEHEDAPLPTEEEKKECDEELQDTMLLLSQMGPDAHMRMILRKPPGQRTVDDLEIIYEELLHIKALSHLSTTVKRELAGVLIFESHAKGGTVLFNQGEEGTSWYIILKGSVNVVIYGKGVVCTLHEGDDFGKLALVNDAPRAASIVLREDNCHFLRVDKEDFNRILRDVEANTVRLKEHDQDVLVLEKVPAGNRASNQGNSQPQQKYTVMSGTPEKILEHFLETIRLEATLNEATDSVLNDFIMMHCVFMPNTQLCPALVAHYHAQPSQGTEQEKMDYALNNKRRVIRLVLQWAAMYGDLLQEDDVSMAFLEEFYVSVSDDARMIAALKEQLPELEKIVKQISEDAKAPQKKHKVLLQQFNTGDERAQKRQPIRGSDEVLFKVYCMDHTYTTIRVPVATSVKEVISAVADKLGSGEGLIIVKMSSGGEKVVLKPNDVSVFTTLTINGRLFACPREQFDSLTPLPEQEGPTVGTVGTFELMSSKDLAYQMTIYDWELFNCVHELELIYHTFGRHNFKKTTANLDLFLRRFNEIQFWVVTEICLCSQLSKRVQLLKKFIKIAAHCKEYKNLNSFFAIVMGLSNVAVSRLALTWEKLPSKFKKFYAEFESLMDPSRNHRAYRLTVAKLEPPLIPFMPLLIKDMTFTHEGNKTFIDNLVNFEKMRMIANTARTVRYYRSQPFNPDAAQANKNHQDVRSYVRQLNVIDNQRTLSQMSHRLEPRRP
Experiment: Confirmatory qHTS for agonist of cAMP-regulated guanine nucleotide exchange factor 4 (EPAC2) (AID 1645884);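 also: nucleotide exchange releases bodipy-GDP from Rap1 and this lowers its fluorescence; nearly all actives have a fitted effect of over 65% in size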
Settings: EPAC2 GEF activity, Rap1B-BODIPY-GDP fluorescence; series mostly up to 154 µM
Inconclusive results are not listed. The source made the active and inactive calls. The call rests on the fitted dose curve; in most records, active means well fitted activation curve with a large enough effect; inconclusive means small, poorly fitted or top-dose-only effect; inactive means no such curve, though single readings can be large or run the other way.
MEASURED_PROPERTY: activation

> print(dat)
                                    compound                               target.desc  assay.value
 1  COc1ccc2c(c1)C(CC(C)=O)N(c1ccc(-c3cccnc3)cc1)C(c1ccsc1)=C2 (stereo unspecified)  Rap guanine nucleotide exchange factor 4 (Homo sapiens) (UniProt Q8WZA2)     inactive
 2                      O=C1Cc2ccccc2C(=O)N1  Rap guanine nucleotide exchange factor 4 (Homo sapiens) (UniProt Q8WZA2)     inactive
 3  CCOC(=O)c1ccc(NC(=S)NNC(=O)C2(C)CC2(Cl)Cl)cc1 (stereo unspecified)  Rap guanine nucleotide exchange factor 4 (Homo sapiens) (UniProt Q8WZA2)     inactive
 4  CCCN(CC(=O)Nc1ccccc1C)C(=O)c1oc2ccc(OCC)cc2c1C  Rap guanine nucleotide exchange factor 4 (Homo sapiens) (UniProt Q8WZA2)     inactive
 5  COC(=O)c1ccccc1NC(=O)c1nn(-c2ccc(OC)cc2)c(=O)c2c1c1ccccc1n2C  Rap guanine nucleotide exchange factor 4 (Homo sapiens) (UniProt Q8WZA2)     inactive
 6  c1ccc(-c2onc(-c3ccco3)c2-c2ccc3c(c2)OCO3)cc1  Rap guanine nucleotide exchange factor 4 (Homo sapiens) (UniProt Q8WZA2)     inactive
 7        O=c1ccc(-c2ccccc2)nn1Cc1ccc(Cl)cc1  Rap guanine nucleotide exchange factor 4 (Homo sapiens) (UniProt Q8WZA2)     inactive
 8  CCCn1nc([N+](=O)[O-])c(C(C#N)c2nc3ccccc3o2)c(Cl)c1=O (stereo unspecified)  Rap guanine nucleotide exchange factor 4 (Homo sapiens) (UniProt Q8WZA2)     inactive
 9       Cc1[nH]c(=O)nc(SCc2cccc(Cl)c2)c1C#N  Rap guanine nucleotide exchange factor 4 (Homo sapiens) (UniProt Q8WZA2)     inactive
10  CCC(C)Sc1nc2c(c(=O)[nH]c(=O)n2C)n1CC(O)COc1cccc2ccccc12 (stereo unspecified)  Rap guanine nucleotide exchange factor 4 (Homo sapiens) (UniProt Q8WZA2)     inactive

* * *

Test system: CP215
Assay: qHTS profiling for inhibitors of Plasmodium falciparum proliferation (AID 504749); also: nearly all actives have a fitted effect of over 60% in size
Conditions: P. falciparum in erythrocytes, SYBR Green DNA, 72 h; series mostly up to 28.7 µM
Results filed as inconclusive are left out. Active and inactive are the calls of the source. Calls follow the shape of the dose curve; as a rule, active = well fitted inhibition curve with a large enough effect; inconclusive = small, poorly fitted or top-dose-only effect; inactive = flat fitted curve, though single readings scatter. Bridge positions count the residues as written; N and C are the ends. Square brackets hold non-standard residues; d marks the D form. Peptide text beside a SMILES is read from it. * marks the point of attachment. Octanoyl(6-Me) = CCC(C)CCCCC(=O)*; Dab = NCC[CH](N)C(=O)O
Labels: active, inactive

MOLECULE	TARGET_DESC	CLASSIFICATION
CC1(C)S[C@@H]2[C@H](NC(=O)COc3ccccc3)C(=O)N2[C@H]1C(=O)O	CP215	inactive
CC1CCC(C(C)C)C(OC(=O)c2ccccc2O)C1 (configuration not stated)	CP215	inactive
C/C=C\c1ccc(OC)cc1	CP215	inactive
CCC(=O)O[C@@H](OP(=O)(CCCCc1ccccc1)CC(=O)N1C[C@H](C2CCCCC2)C[C@H]1C(=O)O)C(C)C (some centres not stated)	CP215	inactive
CC(=O)O[C@@]12CO[C@@H]1C[C@H](O)[C@@]1(C)C(=O)[C@H](O)C3=C(C)[C@@H](OC(=O)C(O)[C@@H](NC(=O)OC(C)(C)C)c4ccccc4)C[C@@](O)([C@@H](OC(=O)c4ccccc4)[C@H]21)C3(C)C (some centres not stated)	CP215	active
CN(C)CCCCCCN(C)C	CP215	inactive
CC(=O)OC1CC2CCC1(C)C2(C)C (configuration not stated)	CP215	inactive
CCN1/C(=C/C=C/C=C/c2sc3ccccc3[n+]2CC)Sc2ccccc21	CP215	active
Cc1cc(CC(C)CC(C)(C)C)n(O)c(=O)c1 (configuration not stated)	CP215	active
CC(C)(CO)C(O)C(=O)NCCCC(=O)O (configuration not stated)	CP215	active
NC1=NC(S)C2N=CN=C2N1 (configuration not stated)	CP215	inactive
CCC(C)CCCCC(=O)NC(CCN)C(=O)NC(C(=O)NC(CCN)C(=O)NC1CCNC(=O)C(C(C)O)NC(=O)C(CCN)NC(=O)C(CCN)NC(=O)C(CC(C)C)NC(=O)C(Cc2ccccc2)NC(=O)C(CCN)NC1=O)C(C)O (configuration not stated) ({Octanoyl(6-Me)}-[Dab]T[Dab][Dab][Dab]FL[Dab][Dab]T; lactam 4-C; configuration not given here)	CP215	inactive
